- Protocol details: NCI Yeast Anticancer Drug Screen. Data for the rad50 strain (AID 155);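 also: 0% = growth of vehicle-only cultures of the same strain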
- Test parameters: S. cerevisiae rad50 strain growth inhibition; at 50.0 µM; stronger effect = higher value
Compounds without any hit were thinned out: in the full panel of roughly 79,000, 15% have a hit.
growth inhibition by entry:
Please respond with the number in % and leave the unit unwritten.

The cases that follow already have their growth inhibition on record.
Enquiry: Request the reported growth inhibition associated with CC(C)(C)C1CCC(=NO)CC1 (configuration not stated)
Return: 23.1

Enquiry: And the next one, CC(Cl)C(O)C#N (configuration not stated) ?
Return: -25.1

Enquiry: And the next one, O=C(OCCO)C1CC2CC1C1(C2)OCCO1 (configuration not stated) ?
Return: -2

Others:
Enquiry: Request the reported growth inhibition associated with `O=C(Nc1ccc(Cl)c([N+](=O)[O-])c1)Oc1ccc2ccccc2c1`
Return: 14.6

Enquiry: And the next one, `CCC#CCN(CCC)CCC` ?
Return: -8.55

###

- Protocol details: NCI Yeast Anticancer Drug Screen. Data for the mlh1 rad18 strain (AID 175)
- Test parameters: S. cerevisiae mlh1 rad18 strain growth inhibition; at 50.0 µM; stronger effect = higher value
The panel holds about 79,000 compounds, 15% with a hit somewhere; the sample as a whole holds those more often.
growth inhibition by entry:
Please respond with the number in % and leave the unit unwritten.

Enquiry: Request the reported growth inhibition associated with COc1cc(NC(C)CCCN)c2nccc(C)c2c1 (stereo not drawn)
Return: -36.9

Enquiry: And the next one, `CS(=O)(=O)OCCN(CCOS(C)(=O)=O)c1ccc(N=Nc2ccccc2C(=O)O)cc1` ?
Return: 32.4

Enquiry: And the next one, `Nc1cn(Cc2ccccc2)c2nc(/C=C3/C=CC=CC3=O)c(O)n12` ?
Return: 8.85

Enquiry: And the next one, `C=C(C)C(=O)OCC(CC)(COC(=O)C(=C)C)COC(=O)C(=C)C` ?
Return: 0

Enquiry: And the next one, `COc1ccc(CCN/C=C(\C)C(=O)c2ccc(F)cc2)cc1OC` ?
Return: -4.5

Others:
Enquiry: Request the reported growth inhibition associated with O=CC(O)C(O)C(O)C(O)COC(=S)OCC(O)C(O)C(O)C(O)C=O (stereo not drawn) (tested in a mixture with another compound)
Return: -4.25

Enquiry: And the next one, `CCCCNC(=O)c1ccccc1C` ?
Return: 1.35

Enquiry: And the next one, `Cc1nc(Nc2ccc(Cl)cc2)c2cnn(-c3ccccc3)c2n1` ?
Return: 26.9

Enquiry: And the next one, `O=C1NC(=O)c2ccc(Br)c3cccc1c23` ?
Return: 1.75

Enquiry: And the next one, COc1cccc(C2c3cc4c(cc3OC(C)(OC)C2C)OCO4)c1 (stereo not drawn) ?
Return: 15.8

###

- Protocol details: NCI Yeast Anticancer Drug Screen. Data for the mec2-1 strain (AID 157)
- Test parameters: S. cerevisiae mec2-1 strain, at 50.0 µM, stronger effect = higher value
The panel holds about 79,000 compounds, 15% with a hit somewhere; the sample as a whole holds those more often.
Returns one of Yes or No; Yes when growth inhibition is >= -20%.

Look over these answered cases.
Enquiry: Please check the record CCOC(=O)C(C(=O)c1cccnc1)C(C(=O)OCC)C(=O)c1cccnc1 (stereo unspecified) and state if its growth inhibition is at or above -20%.
Return: Yes

Enquiry: And the next one, `S=C(Cc1ccccc1)Nc1ccccc1` ?
Return: Yes

Enquiry: And the next one, [N-]=[N+]=NC1CC(n2ccc(=O)[nH]c2=O)OC1CO (stereo unspecified) ?
Return: No

Enquiry: And the next one, CC1CN(CCCOC(=O)Nc2cccc3ccccc23)CCN1Cc1ccccc1 (stereo unspecified) ?
Return: Yes

Enquiry: And the next one, `CCCCCCCCCCCC(=O)N/N=C/c1ccccc1OC` ?
Return: Yes

Here is the next item to consider.
Enquiry: Please check the record CC(=O)NC1CCCCC1C1CCC([N+](=O)[O-])CC1 (stereo unspecified) and state if its growth inhibition is at or above -20%.
Return: Yes

###

- Protocol details: NCI Yeast Anticancer Drug Screen. Data for the rad50 strain (AID 155);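 also: 0% = growth of vehicle-only cultures of the same strain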
- Test parameters: S. cerevisiae rad50 strain growth inhibition; at 50.0 µM; stronger effect = higher value
This is part of a sample that, as a whole, favours compounds with a hit. Of some 79,000 tested, about 15% had one in any assay.
growth inhibition by entry:
Please respond with the number in % and leave the unit unwritten.

Enquiry: Request the reported growth inhibition associated with O=C(c1ccc(Cl)cc1)C(C(c1ccccc1[N+](=O)[O-])N1CCCCC1)N1CCCCC1 (centres undefined)
Return: -15.1

Enquiry: And the next one, `CC(=O)Oc1cc(C(C)C)c(OCCN(C)C)cc1C` ?
Return: -0.15

Enquiry: And the next one, CNc1ccn(C2OC(CO)C(O)C2O)c(=O)n1 (centres undefined) ?
Return: -9.5

Shift focus to the following entry.
Enquiry: Request the reported growth inhibition associated with `COCCNC(C)=O`
Return: 13.8

###

- Protocol details: NCI Yeast Anticancer Drug Screen. Data for the bub3 strain (AID 167)
- Test parameters: S. cerevisiae bub3 mutant strain, at 50.0 µM, stronger effect = higher value
The panel holds about 79,000 compounds, 15% with a hit somewhere; the sample as a whole holds those more often.
Quantity name: growth inhibition (%)
Please respond with the number in % and leave the unit unwritten.

Enquiry: Request the reported growth inhibition associated with `Nc1nc(=S)c2[nH]cnc2[nH]1`
Return: 9.55

Enquiry: And the next one, `CC(=O)c1cc2c(cc1C)CCCC2(C)C` ?
Return: 4.4

Enquiry: And the next one, CN(C)CC(N)C(=O)O (stereo not given) ?
Return: -21.3

Enquiry: And the next one, `Nc1c(Br)c(Br)cc2c1-c1ccc(Br)cc1C2` ?
Return: 7.9

Enquiry: And the next one, `O=C(O)/C=C/C(=O)Nc1cc(Cl)cc2c1-c1c(Cl)cc(Cl)cc1C2=O` ?
Return: -4

Enquiry: And the next one, `O=C(O)Cc1cc(=O)[nH]n(-c2ccccc2)c1=O` ?
Return: -4.65

Others:
Enquiry: Request the reported growth inhibition associated with Cc1ccc(C(O)(c2ccc(C)cc2)C2CCCCC2=C(c2ccccc2)c2ccccc2)cc1 (stereo not given)
Return: -0.25

Enquiry: And the next one, `CN(NC(=O)c1ccccc1)C(=O)c1ccccc1` ?
Return: 6.05

Enquiry: And the next one, `Cc1ccc(C(=O)c2ccc(C)cc2)cc1` ?
Return: 6.3

Enquiry: And the next one, CCOc1ccccc1NC(=O)C(Br)C(Br)c1ccccc1 (stereo not given) ?
Return: 20.1

Enquiry: And the next one, `O=C(CCc1ccccc1CO)NCCc1ccccc1` ?
Return: -34.1

Enquiry: And the next one, `Cc1c(C)c(CC(=O)N2CC2)c(C)c(C)c1CC(=O)N1CC1` ?
Return: 2.65

Enquiry: And the next one, `Cn1c(COc2ccc(/C=N\N3CCN(/N=C\c4ccc(OCc5c[n+]6ccccc6n5C)cc4)CC3)cc2)c[n+]2ccccc12` ?
Return: -5.95

Enquiry: And the next one, `Oc1cccc(N=Cc2ccccc2O)c1` ?
Return: -5.15

Enquiry: And the next one, `Cc1c(C)c2cc(Br)ccc2[nH]c1=O` ?
Return: 6.7

Enquiry: And the next one, `C[C@@]12CCC[C@H]1[C@@H]1CC=C3C[C@@H](S)CC[C@]3(C)[C@H]1CC2` ?
Return: -6.9

Enquiry: And the next one, COc1cc2c(cc1OC)C(=O)C1(CO)COC(=O)C1C2 (stereo not given) ?
Return: -1

Enquiry: And the next one, CC1(CO)CCCC1NCCNC1CCCC1(C)CO (stereo not given) ?
Return: -27.9

Enquiry: And the next one, `O=c1cc(-c2cccs2)ss1` ?
Return: 13.8

Enquiry: And the next one, `C=CCOC(=O)CCCCC` ?
Return: -3.65

Enquiry: And the next one, CC(C(/C=N/NC(N)=S)=N/NC(N)=S)N1C(=O)c2ccccc2C1=O (stereo not given) ?
Return: 2.45

Enquiry: And the next one, `Cc1cc2c(=O)c3ccccc3[nH]c2c(C(=O)O)c1C` ?
Return: -14.7

###

- Protocol details: NCI Yeast Anticancer Drug Screen. Data for the rad50 strain (AID 155);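 also: 0% = growth of vehicle-only cultures of the same strain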
- Test parameters: S. cerevisiae rad50 strain growth inhibition; at 50.0 µM; stronger effect = higher value
Compounds without any hit were thinned out: in the full panel of roughly 79,000, 15% have a hit.
Returns one of Yes or No; Yes when growth inhibition is >= 10%.

Enquiry: Please check the record CC1=CC(NCCC(=O)O)NC(=O)N1 (stereo not drawn) and state if its growth inhibition is at or above 10%.
Return: No

Enquiry: And the next one, `COc1cc2nccnc2c(N)c1OC` ?
Return: Yes

Enquiry: And the next one, CCOC(=O)/C=C1\CCC(C)n2c1nccc2=O (stereo not drawn) ?
Return: No

Others:
Enquiry: Please check the record `CCCCNCCS` and state if its growth inhibition is at or above 10%.
Return: Yes

Enquiry: And the next one, `O=C(O)COc1ccc(I)cc1I` ?
Return: Yes

Enquiry: And the next one, `Nc1c(Cl)cc2c(c1Br)C(=O)c1ccccc1C2=O` ?
Return: Yes

Enquiry: And the next one, `CC(=O)c1cc(C)c(C)cc1C` ?
Return: No

Enquiry: And the next one, `Cc1ccc2c(ccc3ccccc32)n1` ?
Return: Yes

FYI, the data here is from PubChem BioAssay (NCI).
